Value source: ChEMBL document CHEMBL1125906

- System: Escherichia coli
- protocol_text: Biological activity against Escherichia coli N1HJ JC-2 relative to Norfloxacin.
- Type: functional
metric_name: activity relative to norfloxacin
Number only, no unit.

Worked examples, 4 molecules total:
1. CNn1cc(C(=O)O)c(=O)c2cc(F)c(N3CCN(C)CC3)cc21
4
2. CN1CCN(c2cc3c(cc2F)c(=O)c(C(=O)O)cn3-c2ccc(Cl)cc2)CC1
0.25
3. CN(C)CCn1cc(C(=O)O)c(=O)c2cc(F)c(N3CCNCC3)cc21
0.0312
4. O=C(O)c1cn(CCO)c2cc(N3CCNCC3)c(F)cc2c1=O
0.25

Endpoint output: activity relative to norfloxacin of "CN1CCN(c2cc3c(cc2F)c(=O)c(C(=O)O)cn3-c2ccc(F)cc2F)CC1" . Value?
4

---

- System: Escherichia coli
- protocol_text: Biological activity against Escherichia coli N1HJ JC-2 relative to Norfloxacin.
- Type: functional
metric_name: activity relative to norfloxacin

1. O=C(O)c1cn(C2CC2)c2cc(N3CCNCC3)c(F)cc2c1=O [CIPROFLOXACIN]
4
2. O=C(O)c1c(=O)c2cc(F)c(N3CCNCC3)cc2n2ccsc12
4
3. C=Cn1cc(C(=O)O)c(=O)c2cc(F)c(N3CCNCC3)cc21
4
4. CN1CCN(c2cc3c(cc2F)c(=O)c(C(=O)O)cn3-c2ccccc2F)CC1
0.25
5. COc1ccc(-n2cc(C(=O)O)c(=O)c3cc(F)c(N4CCN(C)CC4)cc32)cc1
0.004
6. CCn1cc(C(=O)O)c(=O)c2cc(F)c(N3CCNCC3)cc21 [NORFLOXACIN]
4

Endpoint output: activity relative to norfloxacin of "C=CCn1cc(C(=O)O)c(=O)c2cc(F)c(N3CCNCC3)cc21" . Value?
0.25

"Cc1ccc(-n2cc(C(=O)O)c(=O)c3cc(F)c(N4CCN(C)CC4)cc32)cc1" ?
0.25

"CCCn1cc(C(=O)O)c(=O)c2cc(F)c(N3CCNCC3)cc21" ?
0.25

CN1CCN(c2cc3c(cc2F)c(=O)c(C(=O)O)cn3-c2ccc(F)cc2)CC1 [DIFLOXACIN] ?
4

"CN1CCN(c2cc3c(cc2F)c(=O)c(C(=O)O)cn3-c2ccc(O)cc2)CC1" ?
4

"Cc1csc2c(C(=O)O)c(=O)c3cc(F)c(N4CCNCC4)cc3n12" ?
4

"O=C(O)c1cn(Cc2ccccc2)c2cc(N3CCNCC3)c(F)cc2c1=O" ?
0.25

"Cc1cccc(C)c1-n1cc(C(=O)O)c(=O)c2cc(F)c(N3CCN(C)CC3)cc21" ?
< 0.004

"CN1CCN(c2cc3c(cc2F)c(=O)c(C(=O)O)cn3-c2cccc(F)c2)CC1" ?
0.0312

C[C@@H]1COc2c(N3CCN(C)CC3)c(F)cc3c(=O)c(C(=O)O)cn1c23 [DEXTROFLOXACINE] ?
0.25

"CN1CCN(c2cc3c(cc2F)c(=O)c(C(=O)O)cn3-c2ccc3c(c2)OCO3)CC1" ?
0.25

"Cn1cc(C(=O)O)c(=O)c2cc(F)c(N3CCNCC3)cc21" ?
0.25

"CN1CCN(c2cc3c(cc2F)c(=O)c(C(=O)O)cn3-c2ccccc2)CC1" ?
0.25

"CN1CCN(c2cc3c(cc2F)c(=O)c(C(=O)O)cn3-c2ccc(Br)cc2)CC1" ?
0.0312

---

- System: Escherichia coli
- protocol_text: Biological activity against Escherichia coli N1HJ JC-2 relative to Norfloxacin.
- Format: functional
Measured activity relative to norfloxacin values are reported for all entries that follow.

Worked examples, 3 molecules total:
1) Cc1ccccc1-n1cc(C(=O)O)c(=O)c2cc(F)c(N3CCN(C)CC3)cc21
0.25
2) O=C(O)c1cn(CCF)c2cc(N3CCNCC3)c(F)cc2c1=O
4
3) CN1CCN(c2cc3c(cc2F)c(=O)c(C(=O)O)c2n3CCS2)CC1
4

Moving on to another molecule below.
Endpoint output: activity relative to norfloxacin of C[C@H]1COc2c(N3CCN(C)CC3)c(F)cc3c(=O)c(C(=O)O)cn1c23.C[C@H]1COc2c(N3CCN(C)CC3)c(F)cc3c(=O)c(C(=O)O)cn1c23.O [LEVOFLOXACIN] . Value?
4
